Biological target: purified recombinant 6HIS-Tev-LRRK2 (1326-2527) (Homo sapiens, UniProt Q5S007)
Construct: A LRRK2 cDNA encoding residues 1326-2527 was received from Dundee University; made in house; host or cells: Spodoptera frugiperda (Sf9) insect cells, baculovirus (pFB-HTb)
Sequence (Q5S007 1326-2527): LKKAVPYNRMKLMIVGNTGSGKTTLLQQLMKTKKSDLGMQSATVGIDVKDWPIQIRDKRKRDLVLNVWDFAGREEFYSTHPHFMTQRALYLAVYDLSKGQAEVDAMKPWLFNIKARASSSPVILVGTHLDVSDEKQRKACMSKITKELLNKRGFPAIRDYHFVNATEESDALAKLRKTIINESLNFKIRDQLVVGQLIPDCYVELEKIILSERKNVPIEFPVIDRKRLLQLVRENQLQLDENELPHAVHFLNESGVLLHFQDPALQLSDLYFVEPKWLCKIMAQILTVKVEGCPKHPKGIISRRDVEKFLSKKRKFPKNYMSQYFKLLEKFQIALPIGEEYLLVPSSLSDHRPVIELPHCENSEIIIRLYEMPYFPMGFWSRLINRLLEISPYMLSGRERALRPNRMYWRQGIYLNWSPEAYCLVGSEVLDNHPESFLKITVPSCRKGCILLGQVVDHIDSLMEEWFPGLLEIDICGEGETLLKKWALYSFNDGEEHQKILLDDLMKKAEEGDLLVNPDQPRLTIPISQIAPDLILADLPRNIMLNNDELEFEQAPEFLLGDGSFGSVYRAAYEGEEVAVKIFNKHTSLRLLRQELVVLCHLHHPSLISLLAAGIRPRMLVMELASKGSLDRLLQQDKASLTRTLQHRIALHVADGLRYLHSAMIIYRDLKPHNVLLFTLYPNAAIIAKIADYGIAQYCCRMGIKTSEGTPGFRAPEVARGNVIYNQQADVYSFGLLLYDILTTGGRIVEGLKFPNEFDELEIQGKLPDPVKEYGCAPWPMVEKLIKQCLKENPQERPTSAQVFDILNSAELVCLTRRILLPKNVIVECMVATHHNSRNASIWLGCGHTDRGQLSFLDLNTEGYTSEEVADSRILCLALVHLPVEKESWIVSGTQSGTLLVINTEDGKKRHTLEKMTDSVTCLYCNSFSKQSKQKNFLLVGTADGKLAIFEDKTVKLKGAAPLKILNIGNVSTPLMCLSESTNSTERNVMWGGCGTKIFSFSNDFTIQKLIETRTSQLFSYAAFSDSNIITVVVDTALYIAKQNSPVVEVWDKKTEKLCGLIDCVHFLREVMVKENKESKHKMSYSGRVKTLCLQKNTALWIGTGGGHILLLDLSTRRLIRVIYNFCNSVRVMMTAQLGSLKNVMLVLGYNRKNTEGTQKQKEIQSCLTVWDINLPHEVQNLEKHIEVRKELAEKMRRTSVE
Assay: Recombinant LRRK2 enzyme peptide substrate TR-FRET assay
Assay type: biochemical
Conditions: 60 nM LRRK2 (1326-2527), 1 uM Biotin-longer LRRKtide, 10 uM ATP; read-out: recombinant LRRK2 enzyme peptide substrate TR-FRET assay (pIC50) (converted)
IC50 by entry:

> print(dat)
                                   molecule  reported
1  CCOc1nc(Nc2ccc(C(=O)N3CCC[C@@H]3COC)cc2OC)nc2[nH]ccc12 [Example E35]   ≤ 10 nM
2  CCOc1nc(Nc2ccc(C(=O)N3CCC4(CC3)CC4)cc2OC)nc2[nH]ccc12 [Example E16]   15.8 nM
3  CCOc1nc(Nc2ccc(C(=O)N3CCC(N4CCN(C)CC4)CC3)cc2OC)nc2[nH]ccc12 [Example E4]   ≤ 10 nM
4  CCOc1nc(Nc2ccc(C(=O)N3CCN(C)CC3)cc2OC)nc2[nH]cc(C)c12 [Example E31]   ≤ 10 nM
5  CCOc1nc(Nc2cc(F)c(C(=O)N3CCN(C)CC3)cc2OC)nc2[nH]ccc12 [Example E5]   ≤ 10 nM

IC50 of CCOc1cc(C(=O)N2CCOCC2)ccc1Nc1nc(OCC)c2cc[nH]c2n1 [Example E20] on purified recombinant 6HIS-Tev-LRRK2 (1326-2527) (Homo sapiens, UniProt Q5S007)?
10 nM

IC50 of CCOc1nc(Nc2ccc(C(=O)N3CCCC4(COC4)C3)cc2OC)nc2[nH]ccc12 [Example E44] on purified recombinant 6HIS-Tev-LRRK2 (1326-2527) (Homo sapiens, UniProt Q5S007)?
≤ 10 nM

IC50 of CCOc1nc(Nc2ccc(C(=O)N3CC4CC4(COC)C3)cc2OC)nc2[nH]ccc12 (single isomer, unassigned) [Example E64] on purified recombinant 6HIS-Tev-LRRK2 (1326-2527) (Homo sapiens, UniProt Q5S007)?
≤ 10 nM

IC50 of CCOc1nc(Nc2ccc(C(=O)N3CCN(C)C[C@H]3C)cc2OC)nc2[nH]ccc12 [Example E40] on purified recombinant 6HIS-Tev-LRRK2 (1326-2527) (Homo sapiens, UniProt Q5S007)?
10 nM

* * *

molecular target: purified recombinant 6HIS-Tev-LRRK2 (1326-2527) (Homo sapiens); construct: A LRRK2 cDNA encoding residues 1326-2527 was received from Dundee University; made in house; host or cells: Spodoptera frugiperda (Sf9) insect cells, baculovirus (pFB-HTb); test: Recombinant LRRK2 enzyme peptide substrate TR-FRET assay; assay type: biochemical; conditions: 60 nM LRRK2 (1326-2527), 1 uM Biotin-longer LRRKtide, 10 uM ATP; read-out: recombinant LRRK2 enzyme peptide substrate TR-FRET assay (pIC50) (converted)
IC50 by entry:

Solved cases below.
> print(dat)
                                   molecule  reported
1  CCOc1nc(Nc2ccc(C(=O)N3CCOCC3)cc2OC)nc2[nH]ccc12 [Example E1]   12.6 nM
2  CCOc1nc(Nc2ccc(C(=O)N3CCN(C)CC3)cc2OC(C)C)nc2[nH]ccc12     10 nM

May I ask what IC50 has been recorded for CCOc1nc(Nc2ccc(C(=O)N3CCC4(CC3)CC4COC)cc2OC)nc2[nH]ccc12 (single isomer, unassigned) ?
≤ 10 nM

* * *

target: purified recombinant 6HIS-Tev-LRRK2 (1326-2527) (Homo sapiens, UniProt Q5S007); construct: A LRRK2 cDNA encoding residues 1326-2527 was received from Dundee University; made in house; host or cells: Spodoptera frugiperda (Sf9) insect cells, baculovirus (pFB-HTb); experiment: Recombinant LRRK2 enzyme peptide substrate TR-FRET assay; assay type: biochemical; details: 60 nM LRRK2 (1326-2527), 1 uM Biotin-longer LRRKtide, 10 uM ATP; read-out: recombinant LRRK2 enzyme peptide substrate TR-FRET assay (pIC50) (converted)
Measurement Name: IC50

Solved cases below.
> print(dat)
                                   molecule  reported
1  CCOc1nc(Nc2ccc(C(=O)N3CCC(COC)CC3)cc2OC)nc2[nH]ccc12 [Example E42]   ≤ 10 nM
2  CCOc1nc(Nc2ccc(C(=O)N3CCN(C)[C@H](C)C3)cc2OC)nc2[nH]ccc12 [Example E29]   ≤ 10 nM

Would you kindly look at the next entry?
May I ask what IC50 has been recorded for CCOc1nc(Nc2ccc(C(=O)N3CCC(F)CC3)cc2OC)nc2[nH]ccc12 [Example E36] ?
≤ 10 nM

From: patent US9815841B2
